pIC50 values for the compounds below.
- assayedTarget: Human Rheumatoid Synovial collagenase (Homo sapiens, UniProt P03956)
- Construct: from tissue; host or cells: rheumatoid synovium (tissue or synovial cell culture not distinguished)
- Sequence (P03956 100-469): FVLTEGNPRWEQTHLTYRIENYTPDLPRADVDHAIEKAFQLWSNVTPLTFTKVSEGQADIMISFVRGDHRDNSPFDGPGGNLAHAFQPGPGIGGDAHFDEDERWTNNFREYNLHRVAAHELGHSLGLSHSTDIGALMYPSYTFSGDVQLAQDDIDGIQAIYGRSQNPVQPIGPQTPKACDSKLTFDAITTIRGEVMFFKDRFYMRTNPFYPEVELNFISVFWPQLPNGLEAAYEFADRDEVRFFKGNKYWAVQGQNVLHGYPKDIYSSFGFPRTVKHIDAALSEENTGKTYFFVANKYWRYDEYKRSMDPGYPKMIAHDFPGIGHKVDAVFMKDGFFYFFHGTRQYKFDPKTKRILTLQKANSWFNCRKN
- assayText: inhibition of collagenase (acetyl 14C collagen digestion, Cawston and Barrett)
- Assay type: biochemical
- statedConditions: Table 3; all compounds S stereochemistry at c; 37° C., 16 hours, pH 7.6; read-out: IC50 against human rheumatoid sinovial collagenase
Answer as the number alone; pIC50 is minus log10 of concentration in mol/L.

Example results:
compound	readoutNumber
CNC(=O)[C@H](Cc1ccc(OC)cc1)NC(=O)C(CC(C)C)C(C)S (single isomer, unassigned) [Example 1 Isomer B1]	6.66
CCCCNC(=O)[C@H](C)NC(=O)C(CC(C)C)C(C)S (single isomer, unassigned) [Example 7 Isomer C]	5.92
CNC(=O)[C@@H](NC(=O)C(CS)CC(C)C)C(C)OCc1ccccc1 (stereo partly drawn) [reference compound]	5.32
CNC(=O)[C@@H](NC(=O)C(CC(C)C)C(C)S)[C@@H](C)OCc1ccccc1 (single isomer, unassigned) [Example 6 Isomer A]	6.35
CNC(=O)[C@H](Cc1ccc(OC)cc1)NC(=O)C(CS)CC(C)C (stereo partly drawn) [reference compound]	5.44

--- query ---
Record CCCCNC(=O)[C@H](C)NC(=O)C(CS)CC(C)C (stereo partly drawn) [reference compound] , field pIC50: 4.43

* * *

- assayedTarget: Human Rheumatoid Synovial collagenase (Homo sapiens, UniProt P03956)
- Construct: from tissue; host or cells: rheumatoid synovium (tissue or synovial cell culture not distinguished)
- assayText: inhibition of collagenase (acetyl 14C collagen digestion, Cawston and Barrett)
- Format: biochemical
- statedConditions: Table 2; 37° C., 16 hours, native acetyl 14C collagen, pH 7.6; read-out: IC50 (μM) Human Rheumatoid Synovial collagenase
observationType: IC50 (µM)
Supply the numeric figure in µM, leaving out any unit text.

molecule	IC50 (µM)
CCCCNC(=O)[C@H](C)NC(=O)C(CC(C)C)C(C)S (single isomer, unassigned) [Example 7 Isomer A]	4.9

--- query ---
For the molecule CNC(=O)[C@H](Cc1ccc(OC)cc1)NC(=O)C(CC(C)C)C(S)c1ccccc1 (single isomer, unassigned) [Example 2 Isomer B2] , the measured IC50 on Human Rheumatoid Synovial collagenase (Homo sapiens, UniProt P03956) was 12

* * *

- assayedTarget: Human Rheumatoid Synovial collagenase (Homo sapiens)
- Construct: from tissue; host or cells: rheumatoid synovium (tissue or synovial cell culture not distinguished)
- assayText: inhibition of collagenase (acetyl 14C collagen digestion, Cawston and Barrett)
- Assay type: biochemical
- statedConditions: Table 2; 37° C., 16 hours, native acetyl 14C collagen, pH 7.6; read-out: IC50 (μM) Human Rheumatoid Synovial collagenase
Rule: measured IC50 below 0.5 µM gets label 1; anything equal to or greater than 0.5 µM gets label 0.

A selection of reference data follows.
compound	answerLabel
CNC(=O)[C@@H](NC(=O)C(CC(C)C)C(C)S)[C@@H](C)OCc1ccccc1 (single isomer, unassigned) [Example 6 Isomer A]	label 1
CNC(=O)[C@H](Cc1ccc(OC)cc1)NC(=O)C(CC(C)C)C(C)S (single isomer, unassigned) [Example 1 Isomer A2]	label 0
CNC(=O)[C@H](Cc1ccc(OC)cc1)NC(=O)C(CC(C)C)C(S)c1ccccc1 (single isomer, unassigned) [Example 2 Isomer A1]	label 1
CNC(=O)[C@H](Cc1ccc(OC)cc1)NC(=O)C(CC(C)C)C(S)c1ccccc1 (single isomer, unassigned) [Example 2 Isomer A2]	label 0
CCCCCCC(C(=O)N[C@@H](Cc1ccc(OC)cc1)C(=O)NC)C(C)S (single isomer, unassigned) [Example 4 Isomer A]	label 0

// next entry
Task item: In the record for CCCCC(C(=O)N[C@@H](Cc1ccc(OC)cc1)C(=O)NC)C(C)S (single isomer, unassigned) [Example 5 Isomer A] , is IC50 less than 0.5 µM?
Reply: label 1
